System: E. coli
ASSAY_REMARKS: microbe, parasite or virus in culture
Assay type: cell-based
RUN_CONDITIONS: Escherichia coli, 18 h
MEASUREMENT_TYPE: MBC (µM)
Write the value in µM as a bare number.

Reading of MBC for CN(C)[C@@H]1C(O)=C(C(N)=O)C(=O)[C@@]2(O)C(O)=C3C(=O)c4c(O)cccc4[C@@](C)(O)[C@H]3C[C@@H]12 [Tetracycline, tetracycline] with E. coli: 10

Reading of MBC for CNC(C)C1CCC(N)C(OC2C(N)CC(N)C(OC3OCC(C)(O)C(NC)C3O)C2O)O1 (stereo not shown) [Gentamicin, gentamicin] with E. coli: 2.5

Reading of MBC for CC1(C)S[C@@H]2[C@H](NC(=O)[C@H](N)c3ccccc3)C(=O)N2[C@H]1C(=O)O [Ampicillin, ampicillin] with E. coli: 160
